Each recorded value in this set is attributed to the supplement of paper PMC10338343.

For each of the sequences below, state its pre-steady-state target cleavage rate.
test system: MILI (PIWIL2) piRISC loaded with L1MC piRNA (26 nt); assay: pre-steady-state target cleavage rate (min^-1); guide: L1MC piRNA 5'p-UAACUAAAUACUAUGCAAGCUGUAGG; MIWI and MILI are mouse PIWI proteins and EfPiwi is from a freshwater sponge; tags in brackets are library labels; higher = faster piRNA-guided slicing of the target; conditions: auxiliary factor: 500 nM mouse GTSF1;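 also: 1 nM active piRISC with 0.1 nM target library at 33 °C single turnover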
Number, no unit, nothing else.

Please look up its pre-steady-state target cleavage rate: `UCCUGGUACAGGUUGCAUAGUUUUUAGUUA`
0.039

Again, but for `UCCUGCUACAGCUUCGAUAGUAUUUAGUAA`
0.199

Here is the next sequence: `UCCUGGUACAGCUUGGAUAGUAAUUAGUUA`
0.226

What do we get for `UCCUCCUAGAGCUUGCAAAGUAUUUAGUUA` ?
0.14

Now the sequence `UCCUGCUACACGUUGCAUAGUAUUUAGUUA`
0.289

Same lookup for `UCCUGGAUGUCGAAGCAUAGUAUUUCAGUUA` , please.
0.0176

Then what about the sequence `UCCUGGAUCACCUUGCAUAGAAUUUAGUUA` ?
0.017

Thanks! And `UCCUGCUACAGCUUGCAUAGAUAUUAGUUA` ?
0.0176

Now this one: `UCCUGGAUCAGCAUGCAUAGUAUUAAGUUA`
0.24

How about this sequence: `UCCUGGAUGUCGAAGCAUAGUAUUUAGUA`
0.0246

Now give it for `UCCUGCUACAGCUUGCAUAGUGUUUAGUUA` too.
0.197

Field entry: `UCCUGGAUGAGCUUGCAUACUAUUAAGUUA`
0.00607

Try the sequence `UCCUGCUACAGCAUGCAUAGUUUUUAGUUA`
0.114

Check `UCCUGGAUGAGCUUCGAUAGUAUUUAGUAA` too.
0.0558

Input `UCCUGCAACUGCUUGCAUAGUAUUUAGUUA`
0.322

Likewise for `UCCUCCUACAGCAUGCAUACUAUUUAGUUA` ?
0.0758

// next record `UCCUGCUACAGCUUGCAUUGUAUUUAGAAA`
0.111

Next sequence up: `UCCUCCUACAGCUUGCAUAGUAUUUUGAUA`
0.112

Same question for `UCCUGGAUGUCCUUGCAUAGUAUUAUCUUA` please.
0.0177

What would you report for `UCCUGGAUGUGCUUGCAUUGUAUUAAGUUA` ?
0.0663

Then what about the sequence `UCCUGCUACAGCUUGCAUAGUAUUCUAGUUA` ?
0.26

Further, for `UCCUGGAACGAGCUUGCAUAGUAUUUAGUUA` ?
0.239

Also need `UCCUCGAACAGCUUGCAUAGUAUUUUCAAA` , thanks.
0.102

And what about the sequence `UCCUCCUACAGCUUGCUAAGUAUUUAGUAA` ?
0.0708

// query: `UCCUGGUUCAGCUUGCAUAGUAUUUUCAAA`
0.0427

And the next one, `UCCUGCUACAGCUUGCUUAGUAUUUAGAUA` ?
0.0729

What about `UCCUCCUACAGCUUGCAAUGUAUUUAGUUA` ?
0.101

Let us now turn to `UCCUGGAUCAGCUUGCAUAGUAUUUUCAAA`
0.0677

Next sequence: `UCCUGGAUGUGGCUUGCAUAGUAUUUAGUUA`
0.163

Also `UCCUGGAUGUCCUUGCACAGUAUUUAGUUA` ?
0.145

Repeat with `UCCUCCUACAGCUUGCAUAGUAUUUAGGUA`
0.152

Same question for `UCCUCCUACAGCUUGCAUUCUAUUUACAAA` please.
0.0257

And what about the sequence `UCCUGGAACAGCUACGAUAGUAUUUAGAAA` ?
0.0308

Now consider `UCCUGGAACAGCUGCAUAGUAUUUAGUUA` .
0.279

Cool, now `UCCUGCUUCAGCUUGCAUAGUUUUUAGUUA`
0.0646
